Reported CL (h) values for a set of molecules
procedureSummary: Human microsomal stability assay
Assay type: in vitro ADME
cond: human liver microsomes, 1 μM test compound, 0.5 mg/mL protein, 37° C.; low <7.0, medium 7.0-16.2, high 16.2-23.2
Respond with the bare value in mL/min/kg.

Completed entries (count: 7):
Query string: Bench note: what CL (h) did C[C@@H]1CN(c2ccc(C#N)c3ncccc23)C[C@@H]2CCN(Cc3ncc(N4CCNCC4)cc3F)CCN21 show?
Result string: 8.8

Query string: Item under review: CO[C@@H]1CN(c2cnc(CN3CC[C@H]4CN(c5ccc(C#N)c6ncccc56)C[C@@H](C)N4CC3)c(F)c2)C[C@H]1N . Reported CL (h)?
Result string: 9.4

Query string: For the molecule shown here, C[C@@H]1CN(c2ccc(C#N)c3ncccc23)C[C@@H]2CCN(Cc3cnc(N4CCNCC4)nc3)CCN21 , give the reported CL (h).
Result string: 9.8

Query string: Request the reported CL (h) associated with C[C@@H]1CN(c2ccc(C#N)c3ncccc23)C[C@@H]2CCN(Cc3ccc4c(c3)CCNC4)CCN21
Result string: 8.2

Query string: Entry C[C@@H]1CN(c2ccc(C#N)c3ncccc23)C[C@@H]2CCN(Cc3cnc(N4CCNCC4)cn3)CCN21 has what CL (h)?
Result string: 9.9

Query string: Give the measured CL (h) of C[C@@H]1CN(c2ccc(C#N)c3ncccc23)C[C@@H]2CCN(Cc3ccc(N4CCOC[C@H](N)C4)cn3)CCN21 .
Result string: 8.5

Query string: Give its CL (h) value. Item: C[C@@H]1CN(c2ccc(C#N)c3ncccc23)C[C@@H]2CCN(Cc3ccc(N4CCNCC4)nc3)CCN21
Result string: 9.2

Let us examine a further case.
Query string: Fill in the blank: the reported CL (h) of C[C@@H]1CN(c2cc(=O)n(C)c3ncccc23)C[C@@H]2CCN(Cc3ccc4c(c3)CNCC4)CCN21 is ____.
Result string: 6.5
